Entry source: ChEMBL document CHEMBL1125928

Measured IC50 of individual entries
Molecular target: UniProt Q02769
Sequence (Q02769 whole entry): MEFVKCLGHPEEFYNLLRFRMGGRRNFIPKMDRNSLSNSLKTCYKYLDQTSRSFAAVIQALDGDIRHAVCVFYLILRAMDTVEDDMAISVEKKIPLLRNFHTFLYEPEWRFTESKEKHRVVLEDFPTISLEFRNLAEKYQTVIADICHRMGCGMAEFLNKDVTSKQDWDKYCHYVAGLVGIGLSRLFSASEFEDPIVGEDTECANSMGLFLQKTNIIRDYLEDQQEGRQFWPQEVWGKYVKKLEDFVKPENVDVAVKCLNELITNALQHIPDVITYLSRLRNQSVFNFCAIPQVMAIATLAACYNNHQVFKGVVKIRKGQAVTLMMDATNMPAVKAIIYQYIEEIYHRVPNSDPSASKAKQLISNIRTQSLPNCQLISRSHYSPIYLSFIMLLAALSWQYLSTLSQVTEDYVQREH
A number alone suffices; assume µM.

- CC(C)=CCC/C(C)=C/CC/C(C)=C/CCCOP(=O)(O)C(=O)O: 41.6

With UniProt Q02769 as the test system, CC(C)=CCC/C(C)=C/CC/C(C)=C/CCP(=O)([O-])C(=O)[O-].[Na+].[Na+] showed IC50 of 100

With UniProt Q02769 as the test system, CCOC(=O)P(=O)(O)CCC/C=C(\C)CC/C=C(\C)CCC=C(C)C showed IC50 of 112

###

Species on record: Homo sapiens
Experiment: Compound was tested for the inhibition of cholesterol biosynthesis from [14C]- acetate in freshly isolated from human skin fibroblasts
Assay type: functional, organism-based
Conditions: read-out: I50
reportedEndpoint: pIC50
Note on units: pIC50 is unitless, being -log10 of a concentration expressed in mol/L.

* CCOC(=O)P(=O)(O)CCC/C=C(\C)CC/C=C(\C)CCC=C(C)C | 5.66

Next up:
Memo: CCOC(=O)P(=O)(O)OCC/C=C(\C)CC/C=C(\C)CCC=C(C)C , reported pIC50: 4.92

###

Target: Squalene synthase (Rattus norvegicus, UniProt Q02769)
Sequence (Q02769 whole entry): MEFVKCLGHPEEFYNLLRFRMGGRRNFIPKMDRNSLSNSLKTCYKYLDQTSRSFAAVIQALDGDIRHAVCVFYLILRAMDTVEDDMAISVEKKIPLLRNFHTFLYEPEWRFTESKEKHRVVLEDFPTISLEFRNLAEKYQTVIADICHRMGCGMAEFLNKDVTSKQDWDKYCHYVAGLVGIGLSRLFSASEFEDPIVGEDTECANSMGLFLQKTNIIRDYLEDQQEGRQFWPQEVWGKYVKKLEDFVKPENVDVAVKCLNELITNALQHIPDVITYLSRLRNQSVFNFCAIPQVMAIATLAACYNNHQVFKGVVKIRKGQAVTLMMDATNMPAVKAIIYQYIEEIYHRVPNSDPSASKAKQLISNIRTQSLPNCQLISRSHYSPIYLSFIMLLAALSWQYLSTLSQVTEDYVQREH
Measured IC50 of individual entries
Answer with the number, then the unit.

Consider the worked cases shown below.
• CC(C)=CCC/C(C)=C/CC/C(C)=C/CCC[PH](=O)O = 197 µM
• CCOC(=O)P(=O)(O)OCC/C=C(\C)CC/C=C(\C)CCC=C(C)C = 106 µM

Next up:
Memo: CC(C)=CCC/C(C)=C/CC/C(C)=C/CCCP(=O)([O-])C(=O)[O-].[Na+].[Na+] , reported IC50: 31.8 µM
